# credit: patent US20240423961A1

# Assay Procedure: Phase 1 SAD/MAD study: plasma pharmacokinetics of Compound 1a (LC-MS-MS, noncompartmental analysis)
# Assay type: in vivo, human
# Run Conditions: human, plasma, oral, single-dose administration of 40 mg to 3,000 mg; read-out: average t1/2 across dose levels
Attribute Measured: half-life

The compound listed as "O.O=C([O-])c1nn[nH]c1Oc1ccc(-c2ccc(C3CC(F)(F)C3)cc2)cc1.[Na+]" has a reported half-life of 1310 to 2020 min

###

# Assay Procedure: Phase 1 SAD/MAD study: plasma pharmacokinetics of Compound 1a (LC-MS-MS, noncompartmental analysis)
# Format: in vivo, human
# Run Conditions: human, plasma, oral, 1000 mg, single dose of 1,000 mg, fed; read-out: t1/2 (converted)
Attribute Measured: half-life

Value of measured half-life for the entry O.O=C([O-])c1nn[nH]c1Oc1ccc(-c2ccc(C3CC(F)(F)C3)cc2)cc1.[Na+] [Compound 1a] : ~25.2 h
